- ASSAYED TARGET: Inhibitor of nuclear factor kappa-B kinase subunit beta (Homo sapiens) (UniProt O14920)
- Sequence (O14920 whole entry): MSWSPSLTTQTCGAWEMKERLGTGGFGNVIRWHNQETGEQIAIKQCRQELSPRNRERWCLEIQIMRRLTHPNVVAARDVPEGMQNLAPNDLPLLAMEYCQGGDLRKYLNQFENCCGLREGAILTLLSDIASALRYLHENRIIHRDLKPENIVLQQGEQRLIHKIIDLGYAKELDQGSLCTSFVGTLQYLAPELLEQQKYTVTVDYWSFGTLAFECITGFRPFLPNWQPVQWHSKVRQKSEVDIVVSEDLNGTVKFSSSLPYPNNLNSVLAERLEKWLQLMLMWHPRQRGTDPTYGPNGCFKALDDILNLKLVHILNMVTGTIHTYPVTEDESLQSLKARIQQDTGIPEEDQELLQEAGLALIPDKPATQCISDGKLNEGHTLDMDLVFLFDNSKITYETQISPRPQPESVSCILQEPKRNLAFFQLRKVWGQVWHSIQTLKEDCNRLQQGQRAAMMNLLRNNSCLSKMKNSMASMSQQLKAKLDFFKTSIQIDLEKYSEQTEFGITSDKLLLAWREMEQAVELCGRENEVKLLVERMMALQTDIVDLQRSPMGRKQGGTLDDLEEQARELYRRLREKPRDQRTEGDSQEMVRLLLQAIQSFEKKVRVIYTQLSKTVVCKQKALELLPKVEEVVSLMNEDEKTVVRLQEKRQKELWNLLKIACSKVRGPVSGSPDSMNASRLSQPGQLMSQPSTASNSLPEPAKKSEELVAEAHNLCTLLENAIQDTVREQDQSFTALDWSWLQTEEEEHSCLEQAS
- PROCEDURE TEXT: Inhibition of human IKKbeta at 100 uM using ERLLDDRHDSGLDSMKDEE as substrate after 60 mins in presence of ATP by ADP-Glo kinase assay relative to control
VALUE KIND: inhibition (%)

compound=Cc1c(C(=O)Nc2cc(C(F)(F)F)cc(C(F)(F)F)c2)c(O)nn1C measurement_unit=% recorded_value=13.9
compound=Cn1nc(O)c(C(=O)Nc2cc(C(F)(F)F)cc(C(F)(F)F)c2)n1 measurement_unit=% recorded_value=5.19
compound=O=C(Nc1cc(C(F)(F)F)cc(C(F)(F)F)c1)c1n[nH]nc1O measurement_unit=% recorded_value=5.14
compound=COc1nsnc1C(=O)Nc1cc(C(F)(F)F)cc(C(F)(F)F)c1 measurement_unit=% recorded_value=8.51
compound=O=C(Nc1cccc(C(F)(F)F)c1)c1nsnc1O measurement_unit=% recorded_value=-0.94
compound=Nc1nonc1C(=O)Nc1cc(C(F)(F)F)cc(C(F)(F)F)c1 measurement_unit=% recorded_value=31.6
